Kindly supply the reported kon values for the records listed here.
Target: T1, sIL-6R (soluble IL-6 receptor; SBH Sciences) (human, UniProt P08887 20-365)
T1 construct: also called human IL-6R
T1 sequence: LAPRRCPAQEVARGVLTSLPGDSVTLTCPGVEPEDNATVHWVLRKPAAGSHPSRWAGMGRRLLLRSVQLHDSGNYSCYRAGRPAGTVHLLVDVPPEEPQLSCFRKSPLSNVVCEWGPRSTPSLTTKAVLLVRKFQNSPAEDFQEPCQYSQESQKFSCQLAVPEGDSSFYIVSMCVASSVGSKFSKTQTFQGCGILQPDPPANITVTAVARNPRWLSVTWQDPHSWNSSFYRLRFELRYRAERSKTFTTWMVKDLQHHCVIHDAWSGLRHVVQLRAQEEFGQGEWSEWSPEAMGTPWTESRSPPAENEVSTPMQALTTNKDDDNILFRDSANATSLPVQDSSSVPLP
Assay: SPR (BIAcore 3000), antibody on chip, sIL-6R analyte, 25 C
Field format: number, assumed M⁻¹ s⁻¹, no unit text.

Prompt: Given the binder 230# (antibody, human IgG1, kappa, V domains shown, also called Sample # 230) VH: QVQLQESGPGLVRPSQTLSLTCTVSGYSITSDHAWSWVRQPPGRGLEWIGYISYSGMITYNPSLKSRVTMLRDTSKNQFSLRLSSVTAADTAVYYCARCLARTTAIDFWGQGSLVTVSS VL: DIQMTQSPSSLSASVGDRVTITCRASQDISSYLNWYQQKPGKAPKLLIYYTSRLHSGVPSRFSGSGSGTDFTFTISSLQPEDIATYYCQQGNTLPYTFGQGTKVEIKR , what is its reported kon?
Response: 137000

Prompt: Given the binder 220# (antibody, human IgG1, kappa, V domains shown, also called Sample # 220) VH: QVQLQESGPGLVRPSQTLSLTCTVSGYSITSDHAWSWVRQPPGRGLEWIGYISYSGMITYNPSLKSRVTMLRDTSKNQFSLRLSSVTAADTAVYYCARSLARMTAMDYWGQGSLVTVSS VL: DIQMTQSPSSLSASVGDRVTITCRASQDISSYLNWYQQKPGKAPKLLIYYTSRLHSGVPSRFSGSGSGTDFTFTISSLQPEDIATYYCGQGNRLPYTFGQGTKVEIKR , what is its reported kon?
Response: 131000

Prompt: Given the binder 69# (antibody, human IgG1, kappa, V domains shown, also called Sample # 69) VH: QVQLQESGPGLVRPSQTLSLTCTVSGYSITSDHAWSWVRQPPGRGLEWIGFISYSGMTTYNPSLKSRVTMLRDTSKNQFSLRLSSVTAADTAVYYCARCLARTTAIDFWGQGSLVTVSS VL: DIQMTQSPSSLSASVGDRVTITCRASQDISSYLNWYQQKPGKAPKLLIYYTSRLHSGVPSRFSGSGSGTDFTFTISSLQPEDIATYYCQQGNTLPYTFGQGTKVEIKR , what is its reported kon?
Response: 145000

Prompt: Given the binder 231# (antibody, human IgG1, kappa, V domains shown, also called Sample # 231) VH: QVQLQESGPGLVRPSQTLSLTCTVSGYSITSDHAWSWVRQPPGRGLEWIGYISYSGITTYNPSLKSRVTMLRDTSKNQFSLRLSSVTAADTAVYYCARTLARMTAIDFWGQGSLVTVSS VL: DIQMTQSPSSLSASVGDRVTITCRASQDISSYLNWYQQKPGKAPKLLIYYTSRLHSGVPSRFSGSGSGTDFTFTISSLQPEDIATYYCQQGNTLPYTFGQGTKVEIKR , what is its reported kon?
Response: 132000

Prompt: Given the binder 239# (antibody, human IgG1, kappa, V domains shown) VH: QVQLQESGPGLVRPSQTLSLTCTVSGYSITSDHAWSWVRQPPGRGLEWIGYISYSGMITYNPSLKSRVTMLRDTSKNQFSLRLSSVTAADTAVYYCARCLARATAMDYWGQGSLVTVSS VL: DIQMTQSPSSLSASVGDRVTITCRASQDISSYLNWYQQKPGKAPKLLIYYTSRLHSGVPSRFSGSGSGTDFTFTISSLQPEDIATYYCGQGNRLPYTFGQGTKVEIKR , what is its reported kon?
Response: 144000

Prompt: Given the binder 221# (antibody, human IgG1, kappa, V domains shown) VH: QVQLQESGPGLVRPSQTLSLTCTVSGYSITSDHAWSWVRQPPGRGLEWIGYISYSGMITYNPSLKSRVTMLRDTSKNQFSLRLSSVTAADTAVYYCARSLARTTAIDFWGQGSLVTVSS VL: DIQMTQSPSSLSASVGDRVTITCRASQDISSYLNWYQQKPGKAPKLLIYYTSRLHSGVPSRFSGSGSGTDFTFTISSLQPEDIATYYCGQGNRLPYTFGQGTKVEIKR , what is its reported kon?
Response: 136000

Prompt: Given the binder 232# (antibody, human IgG1, kappa, V domains shown) VH: QVQLQESGPGLVRPSQTLSLTCTVSGYSITSDHAWSWVRQPPGRGLEWIGYISYSGMITYNPSLKSRVTMLRDTSKNQFSLRLSSVTAADTAVYYCARTLARMTAMDYWGQGSLVTVSS VL: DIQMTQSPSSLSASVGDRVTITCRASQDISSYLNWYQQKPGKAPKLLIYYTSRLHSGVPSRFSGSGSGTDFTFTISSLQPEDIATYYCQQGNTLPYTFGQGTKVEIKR , what is its reported kon?
Response: 151000

Prompt: Given the binder 243# (antibody, human IgG1, kappa, V domains shown) VH: QVQLQESGPGLVRPSQTLSLTCTVSGYSITSDHAWSWVRQPPGRGLEWIGYISYSGMITYNPSLKSRVTMLRDTSKNQFSLRLSSVTAADTAVYYCARCLARTTAIDFWGQGSLVTVSS VL: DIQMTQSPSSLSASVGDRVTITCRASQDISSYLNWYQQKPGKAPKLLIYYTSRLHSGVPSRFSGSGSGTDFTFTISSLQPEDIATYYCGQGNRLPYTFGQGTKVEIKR , what is its reported kon?
Response: 71000

Prompt: Given the binder 214# (antibody, human IgG1, kappa, V domains shown) VH: QVQLQESGPGLVRPSQTLSLTCTVSGYSITSDHAWSWVRQPPGRGLEWIGYISYSGITTYNPSLKSRVTMLRDTSKNQFSLRLSSVTAADTAVYYCARCLARMTAIDFWGQGSLVTVSS VL: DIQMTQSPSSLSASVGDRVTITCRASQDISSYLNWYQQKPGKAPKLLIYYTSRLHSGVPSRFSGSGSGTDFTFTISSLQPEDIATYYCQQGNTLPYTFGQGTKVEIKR , what is its reported kon?
Response: 127000

Prompt: Given the binder 238# (antibody, human IgG1, kappa, V domains shown) VH: QVQLQESGPGLVRPSQTLSLTCTVSGYSITSDHAWSWVRQPPGRGLEWIGYISYSGMITYNPSLKSRVTMLRDTSKNQFSLRLSSVTAADTAVYYCARCLARTTAMDYWGQGSLVTVSS VL: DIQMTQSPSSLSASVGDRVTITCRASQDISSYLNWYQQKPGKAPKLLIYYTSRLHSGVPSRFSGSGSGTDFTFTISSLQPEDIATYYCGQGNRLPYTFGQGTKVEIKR , what is its reported kon?
Response: 135000
